assay: Half life in mouse at 10 mg/kg, po; type: ADME, organism-based; parameters: dose 10 mg/kg, route oral; conditions: in vivo
ASSAY_READOUT: half-life
Reply with a number, then the unit it belongs to.

Entry under review: `Cc1ccc(Oc2cccc(CC(=O)N3CCNc4nc(C(F)(F)F)ccc4[C@H]3CC(=O)O)c2)cn1` . Reported half-life?
2.6 h

Let us now turn to `CC(C)COc1cccc(CC(=O)N2CCNc3nc(C(F)(F)F)ccc3[C@H]2CC(=O)O)c1`
3.7 h

Let us now turn to `O=C(Cc1cccc(Oc2ccccc2)c1)N1CCNc2nc(C(F)(F)F)ccc2C1`
0.82 h

* * *

target: Bombesin receptor subtype-3 (Mus musculus); assay: Agonist activity at mouse BRS-3 expressed in CHOK1 cells after 1 hr by HTRF assay
Sequence (O54798 whole entry): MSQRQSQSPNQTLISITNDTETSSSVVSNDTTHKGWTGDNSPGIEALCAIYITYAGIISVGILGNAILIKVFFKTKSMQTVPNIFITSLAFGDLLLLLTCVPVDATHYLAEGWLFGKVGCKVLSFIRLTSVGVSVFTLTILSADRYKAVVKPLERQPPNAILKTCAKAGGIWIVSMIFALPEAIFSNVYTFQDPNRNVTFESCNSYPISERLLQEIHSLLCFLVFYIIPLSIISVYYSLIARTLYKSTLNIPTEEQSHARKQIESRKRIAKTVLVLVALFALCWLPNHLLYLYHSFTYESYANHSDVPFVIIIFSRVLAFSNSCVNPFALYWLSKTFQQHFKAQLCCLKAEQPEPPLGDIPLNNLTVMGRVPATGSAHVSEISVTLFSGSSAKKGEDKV
ASSAY_READOUT: log10 of EC50 (log10 of the value in nM)
log10 EC50, nM

Entry under review: `CC(C)Oc1cccc(CC(=O)N2CCNc3nc(C(F)(F)F)ccc3C2)c1` . Reported log10 of EC50?
2.76

Let us now turn to `O=C(Nc1cccc(Oc2ccccc2)c1)N1CCNc2nc(C(F)(F)F)ccc2C1`
3.14

Let us now turn to O=C(Cc1cccc(Oc2ccccc2)c1)N1CCNc2nc(C(F)(F)F)ccc2C1CO (centres undefined)
1.28

Let us now turn to `O=C(Cc1cccc(Oc2ccccc2F)c1)N1CCNc2nc(C(F)(F)F)ccc2C1`
0.54

Let us now turn to `CC(C)(O)c1nc(-c2cccc3c2N(S(=O)(=O)c2ccc(OC(F)(F)F)cc2)Cc2ccc(C(F)(F)F)nc2N3)no1`
1.34

Let us now turn to `O=C(O)C[C@H]1c2ccc(C(F)(F)F)nc2NCCN1C(=O)Cc1cccc(Oc2ccccc2)c1`
3.49

Let us now turn to `CC(C)(C)c1ccc(CC(=O)N2Cc3ccc(C(F)(F)F)nc3Nc3ccccc32)cc1`
2.36

Let us now turn to `O=C(O)C[C@@H]1c2ccc(C(F)(F)F)nc2NCCN1C(=O)Cc1cccc(Oc2ccccc2)c1`
0.53

Let us now turn to `O=C(O)C[C@@H]1c2ccc(C(F)(F)F)nc2NCCN1C(=O)Cc1cccc(Oc2ccc(F)cc2)c1`
0.43

Let us now turn to `O=C(Cc1cccc(Oc2ccccc2)c1)N1Cc2ccc(C(F)(F)F)nc2Nc2ccccc21`
1.66

Let us now turn to `CC(C)COc1cccc(CC(=O)N2CCNc3nc(C(F)(F)F)ccc3[C@H]2CC(=O)O)c1`
1.79

Let us now turn to `Cc1ccc(Oc2cccc(CC(=O)N3CCNc4nc(C(F)(F)F)ccc4C3)c2)cc1`
0.00

Let us now turn to `CC(C)COc1cccc(CC(=O)N2CCNc3nc(C(F)(F)F)ccc3C2)c1`
1.79

Let us now turn to `Cc1ccc(Oc2cccc(CC(=O)N3CCNc4nc(C(F)(F)F)ccc4[C@H]3CC(=O)O)c2)cn1`
0.54

Let us now turn to `O=C(Cc1cccc(OC2CCCCC2)c1)N1CCNc2nc(C(F)(F)F)ccc2C1`
0.94

Let us now turn to `O=C(Cc1cccc(Oc2ccccc2)c1)N1CCNc2nc(C(F)(F)F)ccc2C1`
1.09

Let us now turn to `O=C(Cc1cccc(OC2CCCC2)c1)N1CCNc2nc(C(F)(F)F)ccc2C1`
2.00

Let us now turn to `CC(C)(C)COc1cccc(CC(=O)N2CCNc3nc(C(F)(F)F)ccc3C2)c1`
2.08

Let us now turn to `O=C(Cc1cccc(Oc2ccccn2)c1)N1CCNc2nc(C(F)(F)F)ccc2C1`
2.39

Let us now turn to CC(=O)N1Cc2ccccc2N(Cc2ccccc2)CC1C(C)C (centres undefined)
2.41

Let us now turn to `O=C(Cc1cccc(Oc2cccc(F)c2)c1)N1CCNc2nc(C(F)(F)F)ccc2C1`
0.94

Let us now turn to O=C(O)CC1c2ccc(C(F)(F)F)nc2NCCN1C(=O)Cc1cccc(Oc2ccccc2)c1 (centres undefined)
1.18

Let us now turn to O=C(O)C1c2ccc(C(F)(F)F)nc2NCCN1C(=O)Cc1cccc(Oc2ccccc2)c1 (centres undefined)
3.35

Let us now turn to `CCOc1cccc(CC(=O)N2CCNc3nc(C(F)(F)F)ccc3C2)c1`
3.08

Let us now turn to `COc1cccc(CC(=O)N2CCNc3nc(C(F)(F)F)ccc3C2)c1`
3.25

Let us now turn to `O=C(Cc1cccc(Oc2ccc(F)cc2)c1)N1CCNc2nc(C(F)(F)F)ccc2C1`
0.43

Let us now turn to `CCCCOc1cccc(CC(=O)N2CCNc3nc(C(F)(F)F)ccc3C2)c1`
1.72

Let us now turn to CC(C)C1CN(Cc2ccccc2)c2ccccc2CN1C(=O)Nc1cccc(N2CCOCC2)c1 (centres undefined)
1.53

Let us now turn to O=C(Cc1cccc(Oc2ccccc2)c1)N1CCNc2nc(C(F)(F)F)ccc2C1CCO (centres undefined)
1.04

Let us now turn to `O=C(Cc1cccc(Oc2cccnc2)c1)N1CCNc2nc(C(F)(F)F)ccc2C1`
2.03

Let us now turn to `Cc1ccc(Oc2cccc(CC(=O)N3CCNc4nc(C(F)(F)F)ccc4C3)c2)cn1`
0.45

Let us now turn to `O=C(Cc1cccc(Oc2ccncc2)c1)N1CCNc2nc(C(F)(F)F)ccc2C1`
2.79

* * *

Provide the reported remaining at 0.5 h of each item.
test: Metabolic stability in mouse liver microsomes assessed as compound remaining after 0.5 hrs; assay type: ADME, Microsome; conditions: read-out: Stability
Record the value in %, omitting the unit from your answer.

Entry under review: `O=C(Cc1cccc(Oc2ccccc2)c1)N1CCNc2nc(C(F)(F)F)ccc2C1` . Reported remaining at 0.5 h?
0.7

Let us now turn to `CC(C)COc1cccc(CC(=O)N2CCNc3nc(C(F)(F)F)ccc3[C@H]2CC(=O)O)c1`
70

Let us now turn to `Cc1ccc(Oc2cccc(CC(=O)N3CCNc4nc(C(F)(F)F)ccc4[C@H]3CC(=O)O)c2)cn1`
94

* * *

Provide the reported solubility of each item.
assay: Solubility of the compound in JP2; type: physicochemical
Record the value in mg/mL, omitting the unit from your answer.

Entry under review: `Cc1ccc(Oc2cccc(CC(=O)N3CCNc4nc(C(F)(F)F)ccc4[C@H]3CC(=O)O)c2)cn1` . Reported solubility?
0.95

Let us now turn to `O=C(Cc1cccc(Oc2ccccc2)c1)N1CCNc2nc(C(F)(F)F)ccc2C1`
0.0051

Let us now turn to `CC(C)COc1cccc(CC(=O)N2CCNc3nc(C(F)(F)F)ccc3[C@H]2CC(=O)O)c1`
0.81

* * *

Provide the reported fraction unbound of each item.
test: Fraction unbound in mouse plasma; format: ADME, cell-free

Entry under review: `O=C(Cc1cccc(Oc2ccccc2)c1)N1CCNc2nc(C(F)(F)F)ccc2C1` . Reported fraction unbound?
0.0067

Let us now turn to `Cc1ccc(Oc2cccc(CC(=O)N3CCNc4nc(C(F)(F)F)ccc4[C@H]3CC(=O)O)c2)cn1`
0.046

Let us now turn to `CC(C)COc1cccc(CC(=O)N2CCNc3nc(C(F)(F)F)ccc3[C@H]2CC(=O)O)c1`
0.033

* * *

assay: Octanol-phosphate buffered saline distribution coefficient, log D of the compound at pH 7.4; format: physicochemical
ASSAY_READOUT: logD
Answer as a number with no unit attached.

Entry under review: `Cc1ccc(Oc2cccc(CC(=O)N3CCNc4nc(C(F)(F)F)ccc4C3)c2)cn1` . Reported logD?
3.6

Let us now turn to `O=C(Cc1cccc(Oc2ccncc2)c1)N1CCNc2nc(C(F)(F)F)ccc2C1`
3.3

Let us now turn to O=C(O)CC1c2ccc(C(F)(F)F)nc2NCCN1C(=O)Cc1cccc(Oc2ccccc2)c1 (stereo not drawn)
1.2

Let us now turn to `O=C(Cc1cccc(Oc2ccccc2)c1)N1CCNc2nc(C(F)(F)F)ccc2C1`
4.5

Let us now turn to `CC(C)COc1cccc(CC(=O)N2CCNc3nc(C(F)(F)F)ccc3C2)c1`
4.3

Let us now turn to `CC(C)COc1cccc(CC(=O)N2CCNc3nc(C(F)(F)F)ccc3[C@H]2CC(=O)O)c1`
0.9

Let us now turn to O=C(Cc1cccc(Oc2ccccc2)c1)N1CCNc2nc(C(F)(F)F)ccc2C1CO (stereo not drawn)
4.1

Let us now turn to `O=C(O)C[C@H]1c2ccc(C(F)(F)F)nc2NCCN1C(=O)Cc1cccc(Oc2ccccc2)c1`
1.2

Let us now turn to `Cc1ccc(Oc2cccc(CC(=O)N3CCNc4nc(C(F)(F)F)ccc4[C@H]3CC(=O)O)c2)cn1`
0.3

Let us now turn to `O=C(Cc1cccc(Oc2cccnc2)c1)N1CCNc2nc(C(F)(F)F)ccc2C1`
3.2

Let us now turn to `O=C(O)C[C@@H]1c2ccc(C(F)(F)F)nc2NCCN1C(=O)Cc1cccc(Oc2ccc(F)cc2)c1`
1.2

Let us now turn to `O=C(Cc1cccc(OC2CCCCC2)c1)N1CCNc2nc(C(F)(F)F)ccc2C1`
4.4

Let us now turn to `O=C(Cc1cccc(Oc2ccc(F)cc2)c1)N1CCNc2nc(C(F)(F)F)ccc2C1`
4.6

Let us now turn to `O=C(Cc1cccc(Oc2cccc(F)c2)c1)N1CCNc2nc(C(F)(F)F)ccc2C1`
4.8

Let us now turn to `O=C(Cc1cccc(Oc2ccccn2)c1)N1CCNc2nc(C(F)(F)F)ccc2C1`
3.2

Let us now turn to `O=C(Cc1cccc(Oc2ccccc2F)c1)N1CCNc2nc(C(F)(F)F)ccc2C1`
4.5

Let us now turn to `O=C(O)C[C@@H]1c2ccc(C(F)(F)F)nc2NCCN1C(=O)Cc1cccc(Oc2ccccc2)c1`
1.2

Data provenance is ChEMBL document CHEMBL3112577.
